Assay read-out IC50 on Serine/threonine-protein kinase PLK2 (Homo sapiens); records merged from the literature.
Sequence (Q9NYY3 whole entry): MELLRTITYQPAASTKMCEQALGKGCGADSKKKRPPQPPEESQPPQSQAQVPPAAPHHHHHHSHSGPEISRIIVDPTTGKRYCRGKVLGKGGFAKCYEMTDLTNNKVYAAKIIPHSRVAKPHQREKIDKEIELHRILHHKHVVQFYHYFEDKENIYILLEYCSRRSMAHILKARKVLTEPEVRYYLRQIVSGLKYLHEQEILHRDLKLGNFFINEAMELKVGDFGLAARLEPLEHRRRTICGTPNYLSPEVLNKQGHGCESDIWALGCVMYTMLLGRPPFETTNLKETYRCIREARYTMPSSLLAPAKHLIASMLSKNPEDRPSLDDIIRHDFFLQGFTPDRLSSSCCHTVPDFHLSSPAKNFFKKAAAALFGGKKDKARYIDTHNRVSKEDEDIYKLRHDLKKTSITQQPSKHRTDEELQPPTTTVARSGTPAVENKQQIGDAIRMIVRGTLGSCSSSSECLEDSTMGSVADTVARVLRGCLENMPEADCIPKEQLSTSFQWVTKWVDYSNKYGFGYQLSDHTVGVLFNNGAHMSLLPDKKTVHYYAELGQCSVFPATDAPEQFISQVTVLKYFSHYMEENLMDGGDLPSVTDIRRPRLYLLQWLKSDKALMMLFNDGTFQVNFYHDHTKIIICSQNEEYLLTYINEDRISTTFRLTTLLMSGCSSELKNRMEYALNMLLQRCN
Readout label: IC50

Compound: O=C1Nc2ccccc2/C1=C\c1ccc2c(/C=C/c3cccnc3)n[nH]c2c1
Value reported: > 10 µM

Compound: COc1ccc2c(c1)/C(=C\c1ccc3c(/C=C/c4ccc(N5CCN(C)CC5)nc4)n[nH]c3c1)C(=O)N2
Value reported: > 10 µM

Compound: CN1CCN(CCCNc2ccc(OC(F)(F)F)c(Nc3ncc4c(n3)-c3c(c(C(N)=O)nn3C)CC4)c2)CC1
Value reported: 1.36 µM

Compound: Cn1nc(C(N)=O)c2c1-c1nc(Nc3cc([N+]4([O-])CC[N+](C)([O-])CC4)ccc3OC(F)(F)F)ncc1CC2 (configuration not stated)
Value reported: > 10 µM

Compound: CN(C)Cc1ccc(/C=C/c2n[nH]c3cc(/C=C4/C(=O)Nc5ccccc54)ccc23)cc1
Value reported: > 10 µM

Compound: CN1CCN(c2ccc(OC(F)(F)F)c(Nc3nccc(-c4cc5c(n4CC(F)(F)F)CCNC5=O)n3)c2)CC1
Value reported: > 10 µM

Compound: O=C1Nc2ccc(F)cc2/C1=C/c1ccc2cn[nH]c2c1
Value reported: > 10 µM

Compound: Cc1ccc2c(c1)/C(=C\c1ccc3c(/C=C/c4ccncc4)n[nH]c3c1)C(=O)N2
Value reported: > 10 µM

Compound: C=CCn1c(=O)c2cnc(Nc3ccc(N4CCN(C)CC4)cc3)nc2n1-c1ccc2c(n1)C(O)(CC)CC2 (racemic)
Value reported: 0.04 µM

Compound: COCCn1nc(C(N)=O)c2c1-c1nc(Nc3cc(N4CCN(C)CC4)ccc3OC(F)(F)F)ncc1CC2
Value reported: > 10 µM

Compound: CC(C)(C)C(=O)N1Cc2c(NC(=O)c3cc(F)cc(F)c3)n[nH]c2C1(C)C
Value reported: > 10 µM

Compound: COc1ccc2c(c1)/C(=C\c1ccc3c(/C=C/c4ccc(CN(C)C)cc4)n[nH]c3c1)C(=O)N2
Value reported: > 10 µM
